# System: Plasmodium falciparum
# assay explanation: Antimalarial activity against Plasmodium falciparum 3D7 after 72 hrs by lactate dehydrogenase assay
# Format: functional, organism-based
# condition parameters: 3D7, 72 h
pIC50: −log10 of the molar value.
assay readout: pIC50

O=c1cc(I)n([C@@H]2O[C@H](CO)[C@@H](O)[C@H]2O)c(=O)[nH]1: 4.57

---

# assay explanation: Therapeutic index, ratio of IC50 for CHO cells to IC50 for Plasmodium falciparum in absence of uridine
# Assay type: cell-based
# condition parameters: hamster, CHO cells versus Plasmodium falciparum; read-out: Ratio IC50
assay readout: selectivity ratio

O=c1cc(I)n([C@@H]2O[C@H](CO)[C@@H](O)[C@H]2O)c(=O)[nH]1: 38

Just for reference, ChEMBL document CHEMBL2331468 is where these values come from.
